Experiment: HepG2 cell viability effects, profiling panel, calcein-AM fluorescence, 48 h, basal (AID 1164); note: test concentration not given here
Details: higher = more signal
The reader will find reported z-score values listed item by item below.
// no unit string in output, number only

// worked examples, z-score included
- COC(=O)[C@@]1(Cc2ccc(OC)cc2)[C@H]2c3cc(C(=O)N4CCCC4)n(Cc4ccc(OC(F)(F)F)cc4)c3C[C@H]2CN1C(=O)c1ccccc1: -0.871
- COc1ccc(C(O)C2C=CC3C(=O)N(c4ccccc4)C(=O)C3N2Nc2ccccc2F)cc1 (stereo not drawn): -0.596
- Cc1ccc(N2C(=O)c3ccccc3[C@](C)(C(=O)NCc3ccccc3)[C@@H]2c2ccc(CO)cc2)nc1: 0.197
- O=C1O[C@H](c2ccccc2)[C@H](c2ccccc2)N2[C@H]1[C@@H](C(=O)N1CCCCCCC1)[C@]1(C(=O)Nc3ccc(C#CC4(O)CCCCCC4)cc31)[C@H]2c1ccccc1OCCO: 0.703
- CN1C(=O)C2C(C1=O)C1C=C(CCCO)C2C(C2CC2)N1Cc1cc2c(cc1Br)OCO2 (stereo not drawn): -0.717
- CC1CC/C=C\[C@H]2OC34C=CCN(C(C)(C)C)C(=O)[C@H]3N(C(CO)C(C)C)C(=O)[C@@H]4C2C(=O)O1 (stereo partly drawn): -0.554
- C#C[C@@H](CC)O[Si](C#CCCCC#N)(C(C)C)C(C)C: -0.168

Proceed to the following item.
# molecule `O=c1cccc(-c2ccco2)o1` ; its z-score = 0.219

Values compiled from PubChem BioAssay.
